test system: rats; experiment: Behavioural dysfunction scoring during recovery from infusion; type: in vivo; settings: rat, during wake-up; sum score 0 (no effect) to 4 (severe dysfunction); mean (SEM)
Reported endpoint: Behavioural dysfunction Score (SEM): severity on recovery

Example results:
>  <Compound>
CNC1(c2ccccc2Cl)CCCCC1=O (stereo not drawn)

>  <Value>
3 (0)

$$$$
>  <Compound>
COC(=O)CCCCNC1(c2ccccc2C(F)(F)F)CCCCC1=O (stereo not drawn)

>  <Value>
1 (0)

$$$$
>  <Compound>
CC(C)OC(=O)CCNC1(c2cccc(Cl)c2)CCCCC1=O (stereo not drawn) [10a]

>  <Value>
1 (0)

$$$$

Prompt: Tell me the measured Behavioural dysfunction Score (SEM): severity on recovery of COC(=O)CCCCNC1(c2ccccc2Cl)CCCCC1=O (stereo not drawn) , please.
Completion: 2 (0)

Prompt: Tell me the measured Behavioural dysfunction Score (SEM): severity on recovery of CC(C)OC(=O)CCNC1(c2ccc(Cl)cc2)CCCCC1=O (stereo not drawn) [15a] , please.
Completion: 2 (1)

Prompt: Tell me the measured Behavioural dysfunction Score (SEM): severity on recovery of COC(=O)CCCCNC1(c2ccccc2OC(F)(F)F)CCCCC1=O (stereo not drawn) , please.
Completion: 3 (1)

###

System: rats
Experiment: Tail flick analgaesic assessment (composite tail flick latency, cTFL)
Type: in vivo
Conditions: rat, 20 mg/kg i.v. infused over 10 min; AUC of %MPE-time curve 0-60 min; measure of analgaesic magnitude/duration
Experimental: Analgaesic assessment protocol: Animal preparation was in accord with the anaesthetic assessment protocol above. Three rats were used in each study. […] A digital response time indicator with a resolution of 0.1s measured the time from initiation of stimulus until tail withdrawal (the flick; TFL). […] TFL latency was recorded at 5 min intervals from cessation of study drug infusion (time zero) to 60 min. […]
# Analgaesia cTFL (composite tail flick latency) values compiled below
Put your answer as a value accompanied by its unit after it.

Example results:
>  <Molecule>
CC(C)OC(=O)CCNC1(c2ccccc2OC(F)(F)F)CCCCC1=O (centres unmarked) [9a]

>  <Value>
80 s

$$$$
>  <Molecule>
Cc1cccc(C2(NCCC(=O)OC(C)C)CCCCC2=O)c1 (centres unmarked) [11a]

>  <Value>
63 s

$$$$
>  <Molecule>
CNC1(c2ccccc2Cl)CCCCC1=O (centres unmarked) [compound 1, ketamine]

>  <Value>
671 s

$$$$

Prompt: API: value(readout= Analgaesia cTFL (composite tail flick latency), system= rats, query= CC(C)OC(=O)CCNC1(c2cccc(OC(F)(F)F)c2)CCCCC1=O (centres unmarked) [14a] )
Completion: 274 s

Prompt: API: value(readout= Analgaesia cTFL (composite tail flick latency), system= rats, query= COC(=O)CCCCNC1(c2ccccc2C)CCCCC1=O (centres unmarked) [6b] )
Completion: 91 s

###

tested on: rats; experiment: Tail flick analgaesic assessment (composite tail flick latency, cTFL); format: in vivo; details: rat, 20 mg/kg i.v. infused over 10 min; AUC of %MPE-time curve 0-60 min; measure of analgaesic magnitude/duration
Reported endpoint: Analgaesia cTFL (composite tail flick latency) (s)
Number in s, nothing else.

Example results:
>  <Compound>
CC(C)OC(=O)CCNC1(c2ccccc2)CCCCC1=O (centres unmarked)

>  <Value>
0

$$$$
>  <Compound>
COC(=O)CCCCNC1(c2ccc(C)cc2)CCCCC1=O (centres unmarked) [16b]

>  <Value>
0

$$$$
>  <Compound>
COC(=O)CCCCNC1(c2cccc(C(F)(F)F)c2)CCCCC1=O (centres unmarked) [13b]

>  <Value>
8

$$$$
>  <Compound>
COC(=O)CCCCNC1(c2cccc(C)c2)CCCCC1=O (centres unmarked) [11b]

>  <Value>
104

$$$$
>  <Compound>
COC(=O)CCCCNC1(c2ccccc2OC(F)(F)F)CCCCC1=O (centres unmarked)

>  <Value>
119

$$$$

Prompt: API: value(readout= Analgaesia cTFL (composite tail flick latency), system= rats, query= CC(C)OC(=O)CCNC1(c2ccccc2C(F)(F)F)CCCCC1=O (centres unmarked) )
Completion: 652

Prompt: API: value(readout= Analgaesia cTFL (composite tail flick latency), system= rats, query= COc1ccc(C2(NCCC(=O)OC(C)C)CCCCC2=O)cc1 (centres unmarked) [17a] )
Completion: 167

Prompt: API: value(readout= Analgaesia cTFL (composite tail flick latency), system= rats, query= COC(=O)CCCCNC1(c2ccccc2Cl)CCCCC1=O (centres unmarked) )
Completion: 374

Prompt: API: value(readout= Analgaesia cTFL (composite tail flick latency), system= rats, query= COC(=O)CCCCNC1(c2ccc(OC)cc2)CCCCC1=O (centres unmarked) [17b] )
Completion: 551

Prompt: API: value(readout= Analgaesia cTFL (composite tail flick latency), system= rats, query= CC(C)OC(=O)CCNC1(c2ccccc2Cl)CCCCC1=O (centres unmarked) )
Completion: 1384

Prompt: API: value(readout= Analgaesia cTFL (composite tail flick latency), system= rats, query= CC(C)OC(=O)CCNC1(c2ccc(C(F)(F)F)cc2)CCCCC1=O (centres unmarked) [18a] )
Completion: 412

Prompt: API: value(readout= Analgaesia cTFL (composite tail flick latency), system= rats, query= CC(C)OC(=O)CCNC1(c2ccc(Cl)cc2)CCCCC1=O (centres unmarked) [15a] )
Completion: 491

Prompt: API: value(readout= Analgaesia cTFL (composite tail flick latency), system= rats, query= COc1cccc(C2(NCCC(=O)OC(C)C)CCCCC2=O)c1 (centres unmarked) [12a] )
Completion: 284

Prompt: API: value(readout= Analgaesia cTFL (composite tail flick latency), system= rats, query= CC(C)OC(=O)CCNC1(c2cccs2)CCCCC1=O (centres unmarked) [20a] )
Completion: 362

Prompt: API: value(readout= Analgaesia cTFL (composite tail flick latency), system= rats, query= COC(=O)CCCCNC1(c2ccccc2C(F)(F)F)CCCCC1=O (centres unmarked) )
Completion: 1864

Prompt: API: value(readout= Analgaesia cTFL (composite tail flick latency), system= rats, query= Cc1ccc(C2(NCCC(=O)OC(C)C)CCCCC2=O)cc1 (centres unmarked) [16a] )
Completion: 650

###

System: rats
Test: Pedal withdrawal reflex (PWR) scoring during intravenous infusion (analgaesic potency)
Assay type: in vivo
Settings: rat, i.v. infusion, dose to PWR = 1, mean (SEM), read-out: Analgaesia potency: minimal dose for loss of pedal withdrawal reflex (SEM)
Protocol: The compounds were evaluated for their ability to anaesthetise rats when administered by continuous intravenous infusion, as reported previously. […] During recovery the rats were monitored for multiple signs of behavioural dysfunction (see biology section for details) and the sum of these scores (from 0 to 4, with 0 being no effect and 4 being severe dysfunction) is given in Table 2. […]
Reported endpoint: minimal effective dose (mg/kg)
Number in mg/kg, nothing else.

Example results:
>  <Compound>
Cc1ccc(C2(NCCC(=O)OC(C)C)CCCCC2=O)cc1 (centres unmarked) [16a]

>  <minimal effective dose (mg/kg)>
52

$$$$
>  <Compound>
COC(=O)CCCCNC1(c2ccc(C)cc2)CCCCC1=O (centres unmarked) [16b]

>  <minimal effective dose (mg/kg)>
55

$$$$
>  <Compound>
Cc1cccc(C2(NCCC(=O)OC(C)C)CCCCC2=O)c1 (centres unmarked) [11a]

>  <minimal effective dose (mg/kg)>
50

$$$$
>  <Compound>
COC(=O)CCCCNC1(c2ccccc2C)CCCCC1=O (centres unmarked) [6b]

>  <minimal effective dose (mg/kg)>
43

$$$$
>  <Compound>
COc1cccc(C2(NCCC(=O)OC(C)C)CCCCC2=O)c1 (centres unmarked) [12a]

>  <minimal effective dose (mg/kg)>
83

$$$$

Prompt: Tell me the measured minimal effective dose of COC(=O)CCCCNC1(c2ccccc2F)CCCCC1=O (centres unmarked) [4b] , please.
Completion: 40

Prompt: Tell me the measured minimal effective dose of COC(=O)CCCCNC1(c2cccc(C)c2)CCCCC1=O (centres unmarked) [11b] , please.
Completion: 43

###

target: N-methyl-D-aspartate receptor; experiment: Inhibition of the NMDA receptor (Eurofins Panlabs Taiwan); conditions: conducted by Eurofins Panlabs Taiwan
pIC50: −log10 of the molar value.
Lab note: anything with pIC50 at or over 4 counts as yes; the rest go in no.

Solved entries (count: 8):
>  <Compound>
CC(C)OC(=O)CCNC1(c2ccccc2)CCCCC1=O (stereo not drawn)

>  <Assayed target>
N-methyl-D-aspartate receptor

>  <Answer label>
no

$$$$
>  <Compound>
COC(=O)CCCCNC1(c2ccccc2Cl)CCCCC1=O (stereo not drawn)

>  <Assayed target>
N-methyl-D-aspartate receptor

>  <Answer label>
yes

$$$$
>  <Compound>
COC(=O)CCCCNC1(c2cccc(Cl)c2)CCCCC1=O (stereo not drawn) [10b]

>  <Assayed target>
N-methyl-D-aspartate receptor

>  <Answer label>
yes

$$$$
>  <Compound>
COC(=O)CCCCNC1(c2ccc(C(F)(F)F)cc2)CCCCC1=O (stereo not drawn) [18b]

>  <Assayed target>
N-methyl-D-aspartate receptor

>  <Answer label>
no

$$$$
>  <Compound>
COC(=O)CCCCNC1(c2cccc(C(F)(F)F)c2)CCCCC1=O (stereo not drawn) [13b]

>  <Assayed target>
N-methyl-D-aspartate receptor

>  <Answer label>
no

$$$$
>  <Compound>
Cc1ccc(C2(NCCC(=O)OC(C)C)CCCCC2=O)cc1 (stereo not drawn) [16a]

>  <Assayed target>
N-methyl-D-aspartate receptor

>  <Answer label>
no

$$$$
>  <Compound>
COC(=O)CCCCNC1(c2cccs2)CCCCC1=O (stereo not drawn) [20b]

>  <Assayed target>
N-methyl-D-aspartate receptor

>  <Answer label>
yes

$$$$
>  <Compound>
COc1cccc(C2(NCCC(=O)OC(C)C)CCCCC2=O)c1 (stereo not drawn) [12a]

>  <Assayed target>
N-methyl-D-aspartate receptor

>  <Answer label>
no

$$$$

Prompt: Quick check: does Cc1ccccc1C1(NCCC(=O)OC(C)C)CCCCC1=O (stereo not drawn) have pIC50 greater than or equal to 4?
Completion: no

Prompt: Quick check: does COC(=O)CCCCNC1(c2ccc(C)cc2)CCCCC1=O (stereo not drawn) [16b] have pIC50 greater than or equal to 4?
Completion: yes

Prompt: Quick check: does CC(C)OC(=O)CCNC1(c2ccc(C(F)(F)F)cc2)CCCCC1=O (stereo not drawn) [18a] have pIC50 greater than or equal to 4?
Completion: no

Prompt: Quick check: does COC(=O)CCCCNC1(c2cccc(OC(F)(F)F)c2)CCCCC1=O (stereo not drawn) [14b] have pIC50 greater than or equal to 4?
Completion: yes

Prompt: Quick check: does COC(=O)CCCCNC1(c2ccccc2)CCCCC1=O (stereo not drawn) have pIC50 greater than or equal to 4?
Completion: yes

Prompt: Quick check: does Cc1cccc(C2(NCCC(=O)OC(C)C)CCCCC2=O)c1 (stereo not drawn) [11a] have pIC50 greater than or equal to 4?
Completion: no
